Data origin, for the record: patent US20040209914A1

Target: Recombinant human MMP-2 (Homo sapiens, UniProt P08253)
Construct: made in house
Sequence (P08253 110-660): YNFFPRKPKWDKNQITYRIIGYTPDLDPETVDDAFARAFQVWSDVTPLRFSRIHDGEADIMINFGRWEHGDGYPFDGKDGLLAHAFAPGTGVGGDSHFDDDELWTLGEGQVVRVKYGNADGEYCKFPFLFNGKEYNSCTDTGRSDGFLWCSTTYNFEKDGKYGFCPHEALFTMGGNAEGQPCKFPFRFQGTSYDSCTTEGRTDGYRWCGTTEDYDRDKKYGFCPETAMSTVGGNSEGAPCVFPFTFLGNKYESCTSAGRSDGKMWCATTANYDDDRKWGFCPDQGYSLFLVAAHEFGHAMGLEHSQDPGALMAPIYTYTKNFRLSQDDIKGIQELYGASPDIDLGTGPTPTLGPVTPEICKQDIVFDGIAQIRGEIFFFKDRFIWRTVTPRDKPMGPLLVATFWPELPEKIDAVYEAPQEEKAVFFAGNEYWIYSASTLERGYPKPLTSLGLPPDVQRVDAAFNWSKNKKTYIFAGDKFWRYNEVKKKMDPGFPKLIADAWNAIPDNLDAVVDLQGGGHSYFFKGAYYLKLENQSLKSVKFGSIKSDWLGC
Experiment: biochemical
Conditions: fluorogenic MCA-peptide substrate, pH 7.5, room temperature; read-out: MMP-2 IC50
pIC50: −log10 of the molar value.
Think of 7 as a floor: if pIC50 stands on it or above, it is 1 (yes); beneath it, 0 (no).

                                   compound  label_value
0  COCCN1CCC(C(=O)NO)(S(=O)(=O)c2ccc(N3CCC(C(=O)c4ccc(CC(C)CO)cc4)CC3)cc2)CC1 (stereo not shown)      1 (yes)
1  COCCN1CCC(C(=O)NO)(S(=O)(=O)c2ccc(N3CCC(C(=O)c4ccc(Cl)cc4)CC3)cc2)CC1       0 (no)

Inquiry: I'd appreciate it if you could say whether C[C@@H]1CN(C(=O)C2CCN(c3ccc(S(=O)(=O)C4(C(=O)NO)CCOCC4)cc3)CC2)C[C@H](C)O1 has pIC50 at least equal to 7.
Reply text: 0 (no)

Inquiry: I'd appreciate it if you could say whether O=C(Cc1cccs1)C1CCN(c2ccc(S(=O)(=O)C3(C(=O)NO)CCOCC3)cc2)CC1 has pIC50 at least equal to 7.
Reply text: 0 (no)

Inquiry: I'd appreciate it if you could say whether COc1ccc(C(=O)C2CCN(c3ccc(S(=O)(=O)C4(C(=O)NO)CCNCC4)cc3)CC2)cc1 has pIC50 at least equal to 7.
Reply text: 0 (no)

Inquiry: I'd appreciate it if you could say whether O=C(NO)C1(S(=O)(=O)c2ccc(N3CCC(c4ccc(F)cc4)CC3)cc2)CCN(C2CC2)CC1 has pIC50 at least equal to 7.
Reply text: 1 (yes)
